Sourced from PubChem BioAssay

Test system: Wnt5a (protein binding on small-molecule microarray)
Test Method Notes: Wnt5a binders on small-molecule microarray, primary screen, biophysical, 635/667 nm fluorescence (AID 1142);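 also: fluorescence read at 667 nm with signal to noise per printed feature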
Assay Setup: 635 nm fluorescence, higher = more signal
Listed here are molecules together with their documented composite z-score.
Please reply with the number alone, leaving off any unit.

Field: example entries. Status: answers known.
CCCc1cc2c(n1Cc1cc(F)cc(F)c1)C(C)C1CN(C(=O)c3ccccc3)C(C)(C(=O)OC)C21 (centres undefined) | 0.239
COc1cc(C(O)C2C=CC3C(=O)NC(=O)C3N2Nc2ccccn2)cc(OC)c1OC (centres undefined) | 0.147
CCC(CC)C(O)C1C=CC2C(=O)NC(=O)C2N1Nc1ccccn1 (centres undefined) | -0.108
CCC[C@@H]1C[C@@]1(CCC)[C@@H](NS(=O)(=O)c1cccc2cccnc12)c1ccc(Cl)cc1 | 0.0298

For CN(C)CCCCCCNC(=O)[C@H]1C[C@H]2C(=O)N3CCC[C@H]3C(=O)N2[C@H]1c1ccc(O)cc1 the molecule record lists composite z-score as 0.899

Form: molecule = [N-]=[N+]=NCc1ccccc1C[C@]1(C(=O)N2CCCCC2)N=C(c2ccc(OCCCO)cc2)O[C@H]1c1ccccc1N=[N+]=[N-] ; composite z-score = 0.0151

For record Cc1nc2cc(Br)ccc2c(=O)o1 the listed composite z-score is 0.119

For record CC(C)N1C(=O)C[C@@](C(=O)NCC(F)(F)F)(c2ccc([N+](=O)[O-])cc2)[C@H]1c1ccc(CO)cc1 the listed composite z-score is -0.492

// composite z-score lookup, molecule = C[N+](C)(C)CCCCCCNC(=O)[C@@H]1C[C@@H]2C(=O)N[C@@H](Cc3ccccc3)C(=O)N2[C@@H]1c1cccc(OCCO)c1 , result: 0.122
